Test system: black bean aphids (Aphis fabae)
protocol: Dip test: field bean plants (Vicia faba) and aphids dipped into solution of preparation, aphid mortality
conditions: plants and aphids dipped 5 seconds; after 3 and 6 days of storage; concentration 500 ppm or less
quantity-measured: mortality of the preparation on the aphids

- compound: "O=C(NSCc1ccc(C(F)(F)F)cc1)c1cnccc1C(F)(F)F"
  assay-system: "black bean aphids (Aphis fabae)"
  observed: "active"
- compound: "O=C(NSc1ccccc1)c1cnccc1C(F)(F)F"
  assay-system: "black bean aphids (Aphis fabae)"
  observed: "active"
- compound: "O=C(NSC1CCCCC1)c1cnccc1C(F)(F)F"
  assay-system: "black bean aphids (Aphis fabae)"
  observed: "active"
- compound: "CC(C)CCSNC(=O)c1cnccc1C(F)(F)F"
  assay-system: "black bean aphids (Aphis fabae)"
  observed: "active"
- compound: "O=C(NSc1ccc(Cl)cc1)c1cnccc1C(F)(F)F"
  assay-system: "black bean aphids (Aphis fabae)"
  observed: "active"

Provide each entry's mortality of the preparation on the aphids from the list below.
1. O=C(NSCc1cccc(C(F)(F)F)c1)c1cnccc1C(F)(F)F
2. CCC(C)SNC(=O)c1cnccc1C(F)(F)F (centres unmarked)
3. CCCCCSNC(=O)c1cnccc1C(F)(F)F
4. O=C(NSC1CCCC1)c1cnccc1C(F)(F)F
5. CCCCCCSNC(=O)c1cnccc1C(F)(F)F
6. CCCCCCCSNC(=O)c1cnccc1C(F)(F)F

Outgoing:
1: active; 2: active; 3: active; 4: active; 5: active; 6: active

Provide each entry's mortality of the preparation on the aphids from the list below.
1. C=CCSNC(=O)c1cnccc1C(F)(F)F
2. O=C(NSC1CC1)c1cnccc1C(F)(F)F
3. CC(C)N(Sc1ccccc1)C(=O)c1cnccc1C(F)(F)F

Outgoing:
1. active
2. active
3. active

Provide each entry's mortality of the preparation on the aphids from the list below.
1. CCN(Sc1ccccc1)C(=O)c1cnccc1C(F)(F)F
2. CC(C)SN=C(OCCC(C)[N+](=O)[O-])c1cnccc1C(F)(F)F (centres unmarked)
3. CCC(C)CSNC(=O)c1cnccc1C(F)(F)F (centres unmarked)
4. Cc1ccc(SN(C(=O)c2cnccc2C(F)(F)F)C(C)C)cc1
5. O=C(NSc1ccc(F)cc1)c1cnccc1C(F)(F)F
6. CC(C)SNC(=O)c1cnccc1C(F)(F)F

Outgoing:
active
active
active
active
active
active
